- system: Vascular endothelial growth factor receptor 2 (Homo sapiens)
- Sequence (P35968 whole entry): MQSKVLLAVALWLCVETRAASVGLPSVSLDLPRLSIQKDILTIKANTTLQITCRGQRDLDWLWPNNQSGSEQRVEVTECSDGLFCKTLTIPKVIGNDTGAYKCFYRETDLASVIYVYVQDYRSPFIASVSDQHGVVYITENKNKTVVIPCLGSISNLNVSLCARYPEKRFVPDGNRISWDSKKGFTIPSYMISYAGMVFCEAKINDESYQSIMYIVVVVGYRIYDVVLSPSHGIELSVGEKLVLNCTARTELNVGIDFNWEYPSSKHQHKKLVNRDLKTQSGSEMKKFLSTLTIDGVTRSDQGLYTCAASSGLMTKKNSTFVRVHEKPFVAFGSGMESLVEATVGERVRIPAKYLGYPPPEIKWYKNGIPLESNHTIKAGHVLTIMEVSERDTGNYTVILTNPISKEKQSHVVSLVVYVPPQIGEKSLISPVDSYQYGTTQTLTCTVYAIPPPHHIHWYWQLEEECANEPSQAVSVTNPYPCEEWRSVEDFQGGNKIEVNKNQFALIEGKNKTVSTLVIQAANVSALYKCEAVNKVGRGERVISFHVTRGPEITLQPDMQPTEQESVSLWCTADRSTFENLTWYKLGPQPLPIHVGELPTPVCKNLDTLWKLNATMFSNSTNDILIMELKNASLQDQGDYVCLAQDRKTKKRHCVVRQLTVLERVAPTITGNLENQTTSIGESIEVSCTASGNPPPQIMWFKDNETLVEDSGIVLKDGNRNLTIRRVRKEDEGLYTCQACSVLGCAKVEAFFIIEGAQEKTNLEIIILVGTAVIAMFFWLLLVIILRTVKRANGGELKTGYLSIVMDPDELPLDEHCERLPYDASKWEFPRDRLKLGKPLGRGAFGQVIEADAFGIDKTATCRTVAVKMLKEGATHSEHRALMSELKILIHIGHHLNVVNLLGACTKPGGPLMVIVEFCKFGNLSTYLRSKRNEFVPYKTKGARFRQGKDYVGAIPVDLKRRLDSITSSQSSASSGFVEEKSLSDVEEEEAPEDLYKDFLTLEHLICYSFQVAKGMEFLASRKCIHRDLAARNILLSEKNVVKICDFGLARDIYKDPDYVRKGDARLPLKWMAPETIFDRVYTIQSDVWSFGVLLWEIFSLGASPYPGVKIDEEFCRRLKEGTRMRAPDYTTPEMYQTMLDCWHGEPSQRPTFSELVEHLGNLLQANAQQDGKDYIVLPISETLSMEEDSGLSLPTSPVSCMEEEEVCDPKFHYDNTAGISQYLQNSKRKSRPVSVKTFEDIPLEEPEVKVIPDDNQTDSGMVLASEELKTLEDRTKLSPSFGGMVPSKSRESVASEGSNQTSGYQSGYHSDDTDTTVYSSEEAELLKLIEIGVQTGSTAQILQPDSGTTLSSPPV

| molSmiles | system | IC50 (µM) |
| --- | --- | --- |
| Cc1cccc(NC(=O)Nc2ccc(Nc3ncnc4[nH]c(C)c(C)c34)cc2)c1 | Vascular endothelial growth factor receptor 2 (Homo sapiens) | 0.0119 |

---

- System: A549
- assayProcedure: Antiproliferative activity against human A549 cells assessed as cell growth inhibition measured after 24 hrs by MTT assay
- Type: functional, cell-based
- conditionsUsed: A549, 24 h
pIC50: −log10 of the molar value.

| molSmiles | pIC50 |
| --- | --- |
| Cn1ccc2c(Nc3ccc(F)c(Cl)c3)nc(NC(=O)Nc3cccc(C(F)(F)F)c3)nc21 | 6.46 |
| Cn1ccc2c(Nc3cccc(Br)c3)nc(NC(=O)Nc3ccc(F)c(C(F)(F)F)c3)nc21 | 5.83 |
| Cn1ccc2c(Nc3ccc(Cl)cc3)nc(NC(=O)Nc3ccc(F)cc3)nc21 | 5.81 |
